System: Chenopodium album
Assay: greenhouse herbicidal test, pre-emergence treatment
Type: in vivo
Settings: pre-emergence method, application rate 50 g/ha, scale from 0 to 100, read-out: herbicidal activity against Chenopodium album
observable: pest or weed control at 50 g/ha

| smiles_record | assay_target | pest or weed control at 50 g/ha |
| --- | --- | --- |
| C#CCN1C(=O)C(F)(F)Oc2cc(F)c(/N=c3\scc(C(F)(F)F)n3C)cc21 | Chenopodium album | ≥ 85% |
| C#CCN1C(=O)C(F)(F)Oc2cc(F)c(N3C(=O)OC(=C(C)C)C3=O)cc21 | Chenopodium album | ≥ 85% |

Item `C#CCN1C(=O)C(F)(F)Oc2cc(F)c(-n3nc(C)n(C(F)F)c3=O)cc21` : provide pest or weed control at 50 g/ha
≥ 85%

====

pest or weed control at 50 g/ha: recorded values
Tested on: Amaranthus retroflexus
Experiment: greenhouse herbicidal test, pre-emergence treatment
Assay type: in vivo
Conditions: pre-emergence method, application rate 50 g/ha, scale from 0 to 100, read-out: herbicidal activity against Amaranthus retroflexus

Item `C#CCN1C(=O)C(F)(F)Oc2cc(F)c(/N=c3\snc4n3CC(C)(C)C4)cc21` : provide pest or weed control at 50 g/ha
≥ 85%

Item `C#CCN1C(=O)C(F)(F)Oc2cc(F)c(N3C(=O)CC(=C(C)C)C3=O)cc21` : provide pest or weed control at 50 g/ha
≥ 85%

Item `C#CCN1C(=O)C(F)(F)Oc2cc(F)c(N3C(=O)c4ccc(F)cc4C3=O)cc21` : provide pest or weed control at 50 g/ha
≥ 85%

====

System: Chenopodium album
Experiment: greenhouse herbicidal test, pre-emergence treatment
Type: in vivo
Settings: pre-emergence method, application rate 50 g/ha, scale from 0 to 100, read-out: herbicidal activity against Chenopodium album
observable: pest or weed control at 50 g/ha

Example entries and their recorded answers appear below.
| smiles_record | assay_target | pest or weed control at 50 g/ha |
| --- | --- | --- |
| C#CCN1C(=O)C(F)(F)Oc2cc(F)c(N3C(=O)[C@H]4C[C@H](F)CN4C3=O)cc21 | Chenopodium album | ≥ 85% |
| C#CCN1C(=O)C(F)(F)Oc2cc(F)c(N3C(=O)CC(C)CC3=O)cc21 | Chenopodium album | ≥ 85% |
| C#CCN1C(=O)C(F)(F)Oc2cc(F)c(N3C(=O)CC(=C(C)C)C3=O)cc21 | Chenopodium album | ≥ 85% |
| C#CCN1C(=O)C(F)(F)Oc2cc(F)c(/N=c3\snc4n3CC(C)(C)C4)cc21 | Chenopodium album | ≥ 85% |

Item `C#CCN1C(=O)C(F)(F)Oc2cc(F)c(/N=c3\sc(=O)n4n3CCCC4)cc21` : provide pest or weed control at 50 g/ha
≥ 85%

Item `C#CCN1C(=O)C(F)(F)Oc2cc(F)c(-n3nc4n(c3=O)CCCC4)cc21` : provide pest or weed control at 50 g/ha
≥ 85%

Item `C#CCN1C(=O)C(F)(F)Oc2cc(F)c(N3C(=O)c4ccc(F)cc4C3=O)cc21` : provide pest or weed control at 50 g/ha
≥ 85%

Item `C#CCN1C(=O)C(F)(F)Oc2cc(F)c(-n3nc(C)nc3OC(F)F)cc21` : provide pest or weed control at 50 g/ha
≥ 85%

The values you see were collected from patent US8669208B2.
